Test system: Escherichia coli TOP10;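 note: peptides expressed intracellularly from a pBAD plasmid library in pooled LB shake-flask culture, induced with 0.3% L-arabinose, DNA abundance read by NGS, three biological replicates, DESeq2 with apeglm shrinkage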
assayDetails: shrunken log2 fold change of peptide-encoding DNA abundance (4.5 h post-induction vs induction); higher = less antimicrobial activity (less host growth inhibition)
settings: time post-induction: 4.5 h; library: site-saturation at positions 5, 18, 19, 20
outcomeMeasure: shrunken log2 fold change
Lab note: jot down the number only; don't add units.

Let me know recorded shrunken log2 fold change for RRIRSRPPRLPRPRPRPAWTPRP , thanks.
0.0161

Let me know recorded shrunken log2 fold change for RRIRMRPPRLPRPRPRPYTFPRP , thanks.
-0.0434

Let me know recorded shrunken log2 fold change for RRIRVRPPRLPRPRPRPPFPPRP , thanks.
0.369

Let me know recorded shrunken log2 fold change for RRIRTRPPRLPRPRPRPQNCPRP , thanks.
-0.373

Let me know recorded shrunken log2 fold change for RRIRHRPPRLPRPRPRPAEIPRP , thanks.
0.000898

Let me know recorded shrunken log2 fold change for RRIRFRPPRLPRPRPRPDIYPRP , thanks.
-0.0949

Let me know recorded shrunken log2 fold change for RRIRVRPPRLPRPRPRPHFCPRP , thanks.
-0.0628

Let me know recorded shrunken log2 fold change for RRIRWRPPRLPRPRPRPLEKPRP , thanks.
0.429
